Reference for the values: patent US9718785B2

# tested-system: human recombinant full-length fatty acid synthase (FASN) (Homo sapiens)
# Construct: 40 nM human recombinant full-length fatty acid synthase (produced in-house in SF9 cells)
# Sequence (P49327 whole entry): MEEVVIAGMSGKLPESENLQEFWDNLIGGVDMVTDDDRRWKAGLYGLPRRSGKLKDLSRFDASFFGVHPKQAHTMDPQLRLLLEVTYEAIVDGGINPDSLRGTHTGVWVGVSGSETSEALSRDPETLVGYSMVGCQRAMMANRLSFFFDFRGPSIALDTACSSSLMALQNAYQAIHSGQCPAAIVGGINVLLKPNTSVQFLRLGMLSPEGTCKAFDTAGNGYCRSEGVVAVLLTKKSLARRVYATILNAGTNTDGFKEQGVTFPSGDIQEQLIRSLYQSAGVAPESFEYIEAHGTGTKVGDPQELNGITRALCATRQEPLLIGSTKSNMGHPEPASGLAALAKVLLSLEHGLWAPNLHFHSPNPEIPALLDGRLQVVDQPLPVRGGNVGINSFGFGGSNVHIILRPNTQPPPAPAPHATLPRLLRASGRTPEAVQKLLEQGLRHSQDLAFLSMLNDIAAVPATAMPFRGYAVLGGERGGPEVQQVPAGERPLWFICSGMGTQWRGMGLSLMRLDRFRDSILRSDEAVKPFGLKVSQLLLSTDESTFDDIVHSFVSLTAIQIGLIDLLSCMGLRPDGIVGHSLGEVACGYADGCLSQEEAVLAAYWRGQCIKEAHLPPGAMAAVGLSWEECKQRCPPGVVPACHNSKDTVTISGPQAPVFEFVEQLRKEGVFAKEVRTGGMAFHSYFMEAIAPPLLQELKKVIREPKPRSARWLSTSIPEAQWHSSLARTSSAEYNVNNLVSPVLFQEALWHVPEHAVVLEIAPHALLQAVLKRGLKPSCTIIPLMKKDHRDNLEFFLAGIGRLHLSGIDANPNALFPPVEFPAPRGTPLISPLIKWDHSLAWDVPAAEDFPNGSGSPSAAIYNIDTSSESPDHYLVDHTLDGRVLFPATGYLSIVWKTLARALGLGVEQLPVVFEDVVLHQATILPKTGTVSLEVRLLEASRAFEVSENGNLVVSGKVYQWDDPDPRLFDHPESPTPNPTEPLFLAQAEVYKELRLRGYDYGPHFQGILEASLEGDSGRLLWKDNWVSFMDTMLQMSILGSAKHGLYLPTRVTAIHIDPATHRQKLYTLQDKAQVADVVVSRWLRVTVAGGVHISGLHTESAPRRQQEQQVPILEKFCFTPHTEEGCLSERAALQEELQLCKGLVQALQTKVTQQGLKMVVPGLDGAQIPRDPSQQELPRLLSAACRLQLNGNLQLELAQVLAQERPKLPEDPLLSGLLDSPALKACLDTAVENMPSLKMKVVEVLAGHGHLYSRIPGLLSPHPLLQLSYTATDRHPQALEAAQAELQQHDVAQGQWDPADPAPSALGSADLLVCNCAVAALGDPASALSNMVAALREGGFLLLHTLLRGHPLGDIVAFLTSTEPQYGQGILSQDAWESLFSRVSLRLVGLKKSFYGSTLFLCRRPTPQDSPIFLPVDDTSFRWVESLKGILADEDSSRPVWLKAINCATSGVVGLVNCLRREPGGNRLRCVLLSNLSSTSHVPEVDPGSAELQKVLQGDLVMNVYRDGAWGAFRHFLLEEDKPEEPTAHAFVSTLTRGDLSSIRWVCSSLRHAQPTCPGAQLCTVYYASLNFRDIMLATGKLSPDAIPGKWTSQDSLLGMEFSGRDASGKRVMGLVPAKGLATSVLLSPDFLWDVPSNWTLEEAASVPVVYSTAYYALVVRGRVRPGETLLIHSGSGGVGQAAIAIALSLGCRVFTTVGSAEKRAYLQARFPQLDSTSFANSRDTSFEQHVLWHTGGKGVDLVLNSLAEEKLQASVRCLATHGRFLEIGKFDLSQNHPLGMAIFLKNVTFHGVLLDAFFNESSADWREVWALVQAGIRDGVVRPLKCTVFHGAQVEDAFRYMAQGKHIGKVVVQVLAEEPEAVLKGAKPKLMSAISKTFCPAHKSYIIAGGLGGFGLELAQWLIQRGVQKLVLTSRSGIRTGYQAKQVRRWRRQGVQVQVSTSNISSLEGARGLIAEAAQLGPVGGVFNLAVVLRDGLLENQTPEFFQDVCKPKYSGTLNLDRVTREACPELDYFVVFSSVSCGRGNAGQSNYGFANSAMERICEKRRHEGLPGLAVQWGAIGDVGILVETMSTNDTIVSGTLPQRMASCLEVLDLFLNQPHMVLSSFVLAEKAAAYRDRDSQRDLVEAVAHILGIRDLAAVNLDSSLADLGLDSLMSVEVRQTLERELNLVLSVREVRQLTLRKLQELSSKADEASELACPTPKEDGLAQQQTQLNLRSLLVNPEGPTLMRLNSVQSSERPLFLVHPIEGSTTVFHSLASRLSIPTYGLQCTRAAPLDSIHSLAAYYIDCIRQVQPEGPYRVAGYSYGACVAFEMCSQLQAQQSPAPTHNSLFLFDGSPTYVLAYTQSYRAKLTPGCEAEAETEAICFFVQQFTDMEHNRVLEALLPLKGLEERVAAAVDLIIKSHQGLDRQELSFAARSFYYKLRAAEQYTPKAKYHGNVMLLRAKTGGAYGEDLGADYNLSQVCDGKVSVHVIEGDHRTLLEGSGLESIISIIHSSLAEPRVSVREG
# experimental-protocol: Biochemical activity testing of human fatty acid synthase FASN (NADPH fluorescence intensity enzyme assay)
# study-conditions: human recombinant FASN, enzyme assay
# Experimental: Biochemical Activity Testing of Human Fatty Acid Synthase FASN Fatty acid synthase FASN is a multifunctional enzyme with seven catalytic activities thereby synthesising long chain fatty acids especially palmitoyl-CoA in the presence of co-factor NADPH starting from the substrates acetyl-CoA and malonyl-CoA. […] After this the fluorescence intensity was measured again in the Envision using the same parameters as described above (second time point measurement). […]
# maps each entry to its IC50

Consider the reported IC50 for these compounds:
[[record]]
compound = "CCC(=O)N[C@H]1CC[C@@H](n2nncc2-c2ccc(-c3ccc4[nH]ccc4c3)cn2)C1 [Compound A117]"
meas_value = "< 300 nM"

[[record]]
compound = "CCC(=O)N[C@H]1CC[C@@H](n2nncc2-c2ccc(-c3ccc4[nH]ccc4c3)cc2)C1 [Compound A27]"
meas_value = "< 300 nM"

[[record]]
compound = "CCC(=O)N[C@H]1CC[C@@H](n2nncc2-c2ccc(-c3ccc4cnn(C)c4c3)cc2)C1 [Compound A63]"
meas_value = "< 300 nM"

[[record]]
compound = "CCNC(=O)[C@H]1CC[C@@H](n2nncc2-c2ccc(-c3ccc(C(N)=O)cc3)cc2)C1 [Compound A99]"
meas_value = "300 to 3000 nM"

[[record]]
compound = "CC1(NC(=O)[C@H]2CC[C@@H](n3cncc3-c3ccc(-c4cc5cc(F)ccc5[nH]4)cc3)C2)CC1 [Compound A8]"
meas_value = "300 to 3000 nM"


**Q:** Given CCC(=O)N[C@H]1CC[C@@H](n2nncc2-c2ccc(-c3ccc4[nH]ccc4c3F)nc2)C1 [Compound A108] , state its recorded IC50.
**A:** < 300 nM

**Q:** Given CC1(NC(=O)[C@H]2CC[C@@H](n3cncc3-c3ccc(-c4ccc(C#N)cc4)cc3)C2)CC1 [Compound A12] , state its recorded IC50.
**A:** 300 to 3000 nM

**Q:** Given CCC(=O)N[C@H]1CC[C@@H](n2nncc2-c2ccc(-c3ccc4[nH]ccc4c3F)c(F)c2)C1 [Compound A119] , state its recorded IC50.
**A:** < 300 nM
